biological target: VEGFR2 (Homo sapiens, UniProt P35968); construct: purchased Carna 08-191; assay: Assay III: kinase inhibition (method of Assay I, different operator), VEGFR2; type: biochemical; details: Table 3; same method as Assay I, different experimental operator
Sequence (P35968 20-1356): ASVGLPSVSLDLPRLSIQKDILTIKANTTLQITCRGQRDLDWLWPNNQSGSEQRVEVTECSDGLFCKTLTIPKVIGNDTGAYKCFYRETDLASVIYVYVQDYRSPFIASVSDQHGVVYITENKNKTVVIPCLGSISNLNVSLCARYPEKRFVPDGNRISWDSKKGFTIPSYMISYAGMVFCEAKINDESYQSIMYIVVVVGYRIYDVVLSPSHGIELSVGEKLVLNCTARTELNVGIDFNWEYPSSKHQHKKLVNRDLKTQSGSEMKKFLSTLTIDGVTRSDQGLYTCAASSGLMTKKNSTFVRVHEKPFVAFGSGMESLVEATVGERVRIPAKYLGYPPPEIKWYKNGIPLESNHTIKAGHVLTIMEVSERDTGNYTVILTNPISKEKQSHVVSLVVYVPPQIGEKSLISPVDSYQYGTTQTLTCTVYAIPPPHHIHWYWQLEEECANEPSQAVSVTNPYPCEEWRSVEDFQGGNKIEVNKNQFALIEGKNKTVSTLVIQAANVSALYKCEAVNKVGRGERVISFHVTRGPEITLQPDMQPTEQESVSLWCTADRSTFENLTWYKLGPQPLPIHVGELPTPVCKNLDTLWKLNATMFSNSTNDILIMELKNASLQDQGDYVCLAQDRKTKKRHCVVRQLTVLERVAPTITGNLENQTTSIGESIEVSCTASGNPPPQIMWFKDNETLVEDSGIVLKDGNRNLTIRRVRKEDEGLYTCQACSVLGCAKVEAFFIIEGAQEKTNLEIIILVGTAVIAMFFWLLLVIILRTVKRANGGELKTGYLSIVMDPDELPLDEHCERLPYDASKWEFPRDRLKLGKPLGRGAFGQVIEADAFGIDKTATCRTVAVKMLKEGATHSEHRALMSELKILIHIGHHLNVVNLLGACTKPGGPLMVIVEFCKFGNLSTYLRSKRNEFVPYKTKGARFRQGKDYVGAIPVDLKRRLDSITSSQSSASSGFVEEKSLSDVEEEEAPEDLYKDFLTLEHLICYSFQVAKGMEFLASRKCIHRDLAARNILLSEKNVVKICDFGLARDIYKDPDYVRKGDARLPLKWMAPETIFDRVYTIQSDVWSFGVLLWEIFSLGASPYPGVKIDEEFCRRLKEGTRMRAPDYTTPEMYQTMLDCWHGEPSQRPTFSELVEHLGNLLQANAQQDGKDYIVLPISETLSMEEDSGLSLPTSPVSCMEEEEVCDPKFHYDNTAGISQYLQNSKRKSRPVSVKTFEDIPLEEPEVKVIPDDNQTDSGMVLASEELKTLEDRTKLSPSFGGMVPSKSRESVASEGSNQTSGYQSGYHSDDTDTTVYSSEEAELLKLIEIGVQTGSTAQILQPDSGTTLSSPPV
metric: IC50 (nM)

| compound | metric | quantitative result |
| --- | --- | --- |
| CCN1CCN(c2ccc(Nc3cc(N(C)C(=O)Nc4c(Cl)c(OC)cc(OC)c4Cl)ncn3)cc2)CC1 [Infigratinib, reference compound] | IC50 | 73 |
| CCC(Oc1ccc2[nH]nc(C(=O)Nc3cnn(C)c3)c2c1)c1c(Cl)cncc1Cl (stereo not drawn) | IC50 | 184 |
| C[C@@H](Oc1ccc2[nH]nc(C(=O)Nc3cnn(CC4CCCN(C)C4)c3)c2c1)c1c(Cl)cncc1Cl (stereo partly drawn) | IC50 | 145 |
| C[C@H](O)Cn1cc(NC(=O)c2n[nH]c3ccc(O[C@H](C)c4c(Cl)cncc4Cl)cc23)cn1 | IC50 | 86 |
| C[C@@H](Oc1ccc2[nH]nc(C(=O)Nc3cnn(C4CCC(O)CC4)c3)c2c1)c1c(Cl)cncc1Cl (stereo partly drawn) | IC50 | 115 |
| CCN1CC(n2cc(NC(=O)c3n[nH]c4ccc(O[C@H](C)c5c(Cl)cncc5Cl)cc34)cn2)C1 | IC50 | 54 |
| CC(Oc1ccc2[nH]nc(C(=O)Nc3cnn(CC(=O)N4CCCC4)c3)c2c1)c1c(Cl)cncc1Cl (stereo not drawn) | IC50 | 114 |
| C[C@@H](Oc1ccc2[nH]nc(C(=O)Nc3cnn(C4CCOCC4)c3)c2c1)c1c(Cl)cncc1Cl | IC50 | 194 |
| C[C@@H](Oc1ccc2[nH]nc(C(=O)Nc3cnn(C4CC(O)C4)c3)c2c1)c1c(Cl)cncc1Cl (stereo partly drawn) | IC50 | 89 |
| CCn1cc(NC(=O)c2n[nH]c3ccc(O[C@H](C)c4c(Cl)cncc4Cl)cc23)cn1 | IC50 | 61 |
| CC(Oc1ccc2[nH]nc(C(=O)Nc3cnn(CC(F)(F)F)c3)c2c1)c1c(Cl)cncc1Cl (stereo not drawn) | IC50 | 68 |
| CC(Oc1ccc2[nH]nc(C(=O)Nc3cnn(CCN4CCCC4)c3)c2c1)c1c(Cl)cncc1Cl (stereo not drawn) | IC50 | 145 |
| C[C@@H](Oc1ccc2[nH]nc(C(=O)Nc3cnn(C4CCN(C)C4)c3)c2c1)c1c(Cl)cncc1Cl (stereo partly drawn) | IC50 | 62 |
| C[C@@H](Oc1ccc2[nH]nc(C(=O)Nc3cnn(CC4CCCN4C)c3)c2c1)c1c(Cl)cncc1Cl (stereo partly drawn) | IC50 | 169 |
| C[C@@H](Oc1ccc2[nH]nc(C(=O)Nc3cnn(CCN4CCOCC4)c3)c2c1)c1c(Cl)cncc1Cl | IC50 | 79 |
